Collected literature values of IC50 measured for PIK3CG (human).

Check out these entries, answers already filled in.
C[C@H](Nc1ncnc2ccc(C#N)cc12)c1nc2cccc(-c3cnc(N)nc3)c2c(=O)n1-c1ccccc1 = 0.117 µM
CC1CN(c2ccnc3c2c(/C=C2\Oc4cccc(O)c4C2=O)cn3C)CC(C)O1 (stereo not drawn) = 0.124 µM
COc1ccc(-c2cnc(N)c(C(=O)N[C@@H](C)c3cc4cccc(Cl)c4c(=O)n3-c3ccccc3)n2)cc1NS(C)(=O)=O = < 0.1 µM

The recorded IC50 with PIK3CG (human) for Cc1cccc2cc(Cn3nc(-c4ccc(O)cc4)c4c(N)ncnc43)n(-c3ccccc3F)c(=O)c12 was < 1 µM

The recorded IC50 with PIK3CG (human) for Cc1cccc(C)c1-n1c(CNc2ncnc3[nH]cnc23)cc2cccc(C)c2c1=O was < 1 µM

The recorded IC50 with PIK3CG (human) for CC(=O)Nc1nc2cc(-c3nn(Cc4cc5cccc(C)c5c(=O)n4-c4ccccc4C)c4ncnc(N)c34)ccc2s1 was < 10 µM

The recorded IC50 with PIK3CG (human) for C[C@H](NC(=O)c1nc(-c2cccc(NS(=O)(=O)N(C)C)c2)cnc1N)c1cc2cccc(Cl)c2c(=O)n1-c1ccccc1 was < 0.1 µM

The recorded IC50 with PIK3CG (human) for C[C@H](Nc1nc(N)nc2cccnc12)c1cc2cccc(Cl)c2c(C(=O)N2CCOCC2)n1 was < 0.1 µM

The recorded IC50 with PIK3CG (human) for Cc1nc(NC(=O)CCCN[C@@H](CC(C)C)C(=O)OC(C)(C)C)sc1-c1ccc(Cl)c(S(C)(=O)=O)c1 was > 1 µM

The recorded IC50 with PIK3CG (human) for C=Cc1ccc(-c2ccc3ncnc(Nc4ccc(CC#N)cc4)c3c2)cc1 was 0.52 µM

The recorded IC50 with PIK3CG (human) for COc1cc(-c2cccc3cc(C(C)NC(=O)c4c(N)nn5cccnc45)c(-c4ccccc4)nc23)ccn1 (stereo not drawn) was 1 to 10 µM

The recorded IC50 with PIK3CG (human) for Cn1cc(/C=C2\Oc3ccc(Br)cc3C2=O)c2c(-c3ccccc3)ccnc21 was 4 µM

The recorded IC50 with PIK3CG (human) for C[C@H](Nc1ncnc2scnc12)c1cc2cccc(Cl)c2c(C(=O)N2CCC(F)(F)CC2)n1 was < 10 µM

The recorded IC50 with PIK3CG (human) for CC(C)(N)C(=O)N1CCN(c2cnc3ccc(-c4ccc5oc(N)nc5c4)nc3c2)CC1 was < 1 µM

The recorded IC50 with PIK3CG (human) for C[C@H](Nc1ncnc2scnc12)c1cc2cccc(Cl)c2c(C(=O)N2CCOC[C@@H]2C)n1 was < 10 µM

The recorded IC50 with PIK3CG (human) for COCCC1CN(c2ccnc3c2c(/C=C2\Oc4ccc(NC(=O)Nc5cccnc5)cc4C2=O)cn3C)CCO1 (stereo not drawn) was 1.93 µM
